- assayed.target: T1, Biotin-labeled CD3 epsilon peptide antigen (human, also: biotin-labeled, site not given here)
- T1 construct: also called CD3 peptide
- T1 peptide: QDGNEEMGGITQTPY
- measurement.notes: bead ELISA, IgG on biotinylated CD3 epsilon peptide, luminescence
Where no end group is shown, it is not given here.
value.kind: RLU (RLU)
Express it in RLU; write the number only.

Looking up DADU01_3#001 (antibody, V domains shown, Human IgG1; light chain GLS3000 (kappa); also called dBBDu126; dBBDu_126) VH: QVQLVESGGGLVQPGRSLRLSCAASGFTFSIAWMHWVRQAPGKGLEWVAQIKDRVNAYEAYYAPSVKGRFTISRDDSKNSIYLQMNSLKTEDTAVYYCRYVHYASYYDLLGYGGVDAWGQGTTVTVSS VL: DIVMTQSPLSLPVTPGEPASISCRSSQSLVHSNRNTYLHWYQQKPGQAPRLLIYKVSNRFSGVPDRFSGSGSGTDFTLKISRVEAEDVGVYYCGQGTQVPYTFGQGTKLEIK , I found its RLU recorded as 198000
